- test.target: Tyrosine-protein kinase Lyn (Homo sapiens) (UniProt P07948);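 also: mean inhibition of the LYN B splice variant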
- Sequence (P07948 2-512 limits assumed): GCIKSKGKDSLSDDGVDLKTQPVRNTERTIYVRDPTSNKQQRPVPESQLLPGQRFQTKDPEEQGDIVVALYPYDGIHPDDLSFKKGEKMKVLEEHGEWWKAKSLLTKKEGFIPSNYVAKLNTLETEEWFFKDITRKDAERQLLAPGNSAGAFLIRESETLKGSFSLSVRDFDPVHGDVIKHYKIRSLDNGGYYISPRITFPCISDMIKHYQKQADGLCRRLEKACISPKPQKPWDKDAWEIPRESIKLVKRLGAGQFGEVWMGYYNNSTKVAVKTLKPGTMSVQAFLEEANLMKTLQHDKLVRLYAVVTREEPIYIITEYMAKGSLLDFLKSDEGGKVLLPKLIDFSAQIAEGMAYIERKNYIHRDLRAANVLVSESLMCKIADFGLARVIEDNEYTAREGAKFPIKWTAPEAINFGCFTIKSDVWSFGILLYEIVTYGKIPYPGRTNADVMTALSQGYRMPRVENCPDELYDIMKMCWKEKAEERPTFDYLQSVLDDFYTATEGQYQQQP
- applied.conditions: at 0.1 µM
- Description: GSK_PKIS: LYN B (splice variant) mean inhibition at 0.1 uM [Nanosyn]
Reported inhibition is given for each of the following molecules.
Report the figure in % without appending any unit label.

molecule=COc1cccc(Nc2nccc(-c3cnn4ncccc34)n2)c1 recorded_value=3.27
molecule=Fc1cccc(COc2ccc(Nc3ncncc3C#Cc3ccccc3)cc2Cl)c1 recorded_value=2.8
molecule=COc1cc(N2CCN(C(C)C)CC2)ccc1Nc1nc(Nc2cccc(F)c2C(=O)O)c2cc[nH]c2n1 recorded_value=3.03
molecule=O=C(O[C@H]1CN[C@H](C#Cc2cc3ncnc(Nc4ccc(OCc5cccc(F)c5)c(Cl)c4)c3s2)C1)N1CCOCC1 recorded_value=2.24
molecule=COc1ccc2ncn(-c3cc(O[C@H](C)c4ccccc4C(F)(F)F)c(C(N)=O)s3)c2c1 recorded_value=-0.04
molecule=COc1cc(Nc2ncc(-c3ccccc3)o2)cc(OC)c1 recorded_value=5.81
molecule=COc1cc2c(cc1Nc1nc(Nc3cccc(F)c3C(N)=O)c3cc[nH]c3n1)N(C(=O)CN1CCN(C(C)C)CC1)CC2 recorded_value=-1.56
molecule=NC(=O)c1ccc2c(-c3ccnc(NCCCO)n3)c(-c3ccc(F)cc3)nn2c1 recorded_value=4.82
molecule=O=C(Nc1n[nH]c2nnc(-c3cccnc3)cc12)C1CC1 recorded_value=1.05
molecule=Fc1ccc(Nc2nccc(-c3c(-c4ccc(C(F)(F)F)cc4)nn4ncccc34)n2)cc1F recorded_value=1.22

Asked: For the record N#Cc1ccc2c(-c3ccnc(NC4CC4)n3)c(-c3ccc(F)cc3)nn2c1 , what value of inhibition is listed for Tyrosine-protein kinase Lyn (Homo sapiens) (UniProt P07948)?
Given back: -0.74

Asked: One more molecule: CC1=C(C(=O)Nc2ccc3[nH]ncc3c2)C(c2ccc(F)cc2)N=C(c2ccc(C(F)(F)F)nc2)N1 (stereo not given)
Given back: 0.9

Asked: One more molecule: COC(=O)Nc1nc2cc(Oc3ccc(NC(=O)Nc4ccccc4)cc3)ccc2[nH]1
Given back: 2.63

Asked: One more molecule: CCCNc1cccc(-n2ncc3c(N/N=C/c4ccncc4)ncnc32)c1
Given back: 15.4

Asked: One more molecule: OCCCNc1nccc(-c2c(-c3ccc(F)cc3)nn3cc(C(F)(F)F)ccc23)n1
Given back: 3

Asked: One more molecule: CCN1CCC(C(=O)Nc2n[nH]c3nnc(-c4cccc(F)c4F)cc23)CC1
Given back: 1.1

Asked: One more molecule: c1cnn2ncc(-c3ccnc(NCCCN4CCOCC4)n3)c2c1
Given back: 2.77
